Provide the recorded Johnsongrass plant response rating for the entries that follow.
# Tested on: johnsongrass
# protocol-details: Test C pre-/postemergence test
# Assay type: in vivo, Sorghum halepense
# details: preemergence, 250 g ai/ha; scale 0 (no effect) to 100 (complete control)
The reply should be a number, written without any unit.

Recorded Johnsongrass plant response rating for Cn1nc(C(F)(F)F)c(C[S+]([O-])c2ccc(Cl)c[n+]2[O-])c1OCC(F)(F)F (racemic) , please?
100

Request the reported Johnsongrass plant response rating associated with Cn1nc(C(F)(F)F)c(CS(=O)(=O)c2cccc[n+]2[O-])c1OCC(F)F
100

Record request: Johnsongrass plant response rating value, item CCc1cc[n+]([O-])c([S+]([O-])Cc2c(C(F)(F)F)nn(C)c2OC(F)F)c1 (stereo not shown)
100

Any idea what Johnsongrass plant response rating was measured for CCn1nc(C(F)(F)F)c(CS(=O)(=O)c2cccc[n+]2[O-])c1OCC(F)(F)F ?
98
